- assayExplanation: Cmax in po dosed mouse
- Assay type: ADME, organism-based
- Parameters: route oral
- conditionLabel: in vivo
assayReadout: Cmax (ng/mL)
Your answer is read as ng/mL, so omit the unit and give the number.

If you can, please state the reported Cmax value of Cc1nn(-c2nc(-c3ccc(Cl)c(Cl)c3)c(SC(C)C)s2)c(C(=O)O)c1-c1cc(Cl)cc(Cl)c1 .
1320

* * *

- assayExplanation: AUC (0 to infinity) in mouse at 50 mg/kg
- Type: ADME, organism-based
- Parameters: dose 50 mg/kg, time infinity
- conditionLabel: in vivo
assayReadout: AUC(0-inf) (µg·h/mL)
Your answer is read as µg·h/mL, so omit the unit and give the number.

If you can, please state the reported AUC(0-inf) value of Cc1nn(-c2nc(-c3ccc(Cl)c(Cl)c3)c(SC(C)C)s2)c(C(=O)O)c1-c1cc(Cl)cc(Cl)c1 .
2250

* * *

- assayExplanation: Volume of distribution at steady state in iv dosed mouse
- Format: ADME, organism-based
- conditionLabel: in vivo, read-out: Vdss
assayReadout: Vd (L/kg)
Your answer is read as L/kg, so omit the unit and give the number.

If you can, please state the reported Vd value of Cc1nn(-c2nc(-c3ccc(Cl)c(Cl)c3)c(SC(C)C)s2)c(C(=O)O)c1-c1cc(Cl)cc(Cl)c1 .
0.444

* * *

- Test system: Jurkat
- assayExplanation: Antiproliferative activity against human Jurkat cells
- Assay type: functional, cell-based
assayReadout: pIC50
// returns pIC50 (minus log10 of molar concentration), number only

If you can, please state the reported pIC50 value of Cc1nn(-c2nc(-c3ccc(Cl)c(Cl)c3)c(SC(C)C)s2)c(C(=O)O)c1-c1cc(Cl)cc(Cl)c1 .
6.30

* * *

- assayExplanation: Cmax in J:Nu mouse plasma at 60 mg/kg, po qd for 7 days followed by 120 mg/kg, po qd for 5 days from day 8 to 13
- Type: ADME, organism-based
- Design: dose 60 mg/kg, route oral
assayReadout: Cmax (µg/mL)
Your answer is read as µg/mL, so omit the unit and give the number.

If you can, please state the reported Cmax value of Cc1nn(-c2nc(-c3ccc(Cl)c(Cl)c3)c(SC(C)C)s2)c(C(=O)O)c1-c1cc(Cl)cc(Cl)c1 .
128

* * *

- System: B cell
- assayExplanation: Antiproliferative activity against human primary B cells
- Format: cell-based
assayReadout: IC50

If you can, please state the reported IC50 value of Cc1nn(-c2nc(-c3ccc(Cl)c(Cl)c3)c(SC(C)C)s2)c(C(=O)O)c1-c1cc(Cl)cc(Cl)c1 .
> 40 µM

* * *

- assayExplanation: Plasma concentration (7 hrs) in J:Nu mouse at 10 mg/kg, po qd for 7 days measured on day 5
- Type: ADME, organism-based
assayReadout: concentration at 7 h (ng/mL)
Your answer is read as ng/mL, so omit the unit and give the number.

If you can, please state the reported concentration at 7 h value of Cc1nn(-c2nc(-c3ccc(Cl)c(Cl)c3)c(SC(C)C)s2)c(C(=O)O)c1-c1cc(Cl)cc(Cl)c1 .
18200

* * *

- assayExplanation: Kinetic solubility of the compound in PBS buffer at pH 7.4 in presence of 10% FBS
- Format: physicochemical
- conditionLabel: PBS buffer with 10% FBS, read-out: Kinetic_solubility
assayReadout: solubility kinetic

If you can, please state the reported solubility kinetic value of Cc1nn(-c2nc(-c3ccc(Cl)c(Cl)c3)c(SC(C)C)s2)c(C(=O)O)c1-c1cc(Cl)cc(Cl)c1 .
> 200 µM
